From: a melting point compilation (Tetko et al.; mined from patent text by program, amines drawn as free bases though some values may be those of a salt)

List of melting point values.
Property measured: melting point

| Compound | Property measured | Reported measurement |
| --- | --- | --- |
| O=C(c1cccc(C(F)(F)F)c1)c1ccc[nH]1 | melting point | 54 to 56 °C |
| Oc1nnc(O)c2c1CCCC2 | melting point | 298 to 300 °C |
| O=c1c2c(Cl)cccc2nc2sc(Br)cn12 | melting point | 174 to 178 °C |
| O=S(=O)(c1cccc(F)c1)N1CCCC1c1ccc(F)cc1 (racemic) | melting point | 101 °C |
| CC(C)Cn1c(CNC(=O)OC(C)(C)C)c(-c2ccc(Cl)cc2)c2cc(C(N)=O)ccc2c1=O | melting point | 144 to 146 °C |
| C=CCCc1ccc(C=NN=Cc2ccc(CCC=C)cc2)cc1 | melting point | 57 °C |
| CCOC(=O)c1cn(-c2nnc(C)s2)c2cc(F)c(F)cc2c1=O | melting point | 170 to 173 °C |
| Oc1cc2onc(C3CCCCC3)c2cc1O | melting point | 177 °C |
| COc1cc2c(=O)n(C)c(-c3ccc(OC4CCN(C5CCC5)CC4)cc3)nc2cn1 | melting point | 146 to 148 °C |
| O=Cc1ccc(C(=O)NCC(F)(F)F)cc1 | melting point | 83 to 84 °C |
| O=C(CCCCCN1CCN(c2ccc3c(c2)CCCC3)CC1)N1Cc2ccccc2C1 | melting point | 123 °C |

* * *

List of melting point values.
Property measured: melting point

| Molecule | Reported measurement |
| --- | --- |
| O=c1[nH]nc(CCc2cc(F)c(C(F)(F)F)c(F)c2)cc1O | 211 to 212 °C |
| Cn1c(=O)[nH]c(N2CCc3ccccc3CC2)c(C#N)c1=O | > 200 °C |
| CCOC(=O)C1(C(=O)OCC)CCNC(=O)CC1 | 80 to 81 °C |
| NCCNCCNc1ccc2c3c(nn2CCO)-c2c(O)ccc(O)c2C(=O)c13 | 185 to 190 °C |
| CCNC(=O)c1c([Si](C)(C)C)sc2c1CCCC2 | 107 to 112 °C |
| CNC(=O)NCCSCc1[nH]cnc1C | 158 to 159 °C |
| Cn1c(=O)ccc2cnc(S(C)(=O)=O)nc21 | 194 to 196 °C |
| CCN(CCNC(=O)c1ccc2ccccc2c1)C1CCc2ncsc2C1 (stereo unspecified) | 110 °C |
| Nc1nc(-c2cc(Cl)nc(Cl)c2)cs1 | 239 to 247 °C |
| CCCn1c(=O)c2[nH]c(-c3ccc4c(c3)OCCO4)nc2n(CCC)c1=O | 280 to 282 °C |
| CC(C)(C)OC(=O)NC(Cc1ccccc1)C(=O)Oc1ccc2ccccc2c1 (stereo unspecified) | 118 to 119 °C |
| Nc1ccc(Nc2ccc([N+](=O)[O-])cc2S(=O)(=O)CCO)cc1 | 147 to 149 °C |
| CC12CCC3c4ccc(O)cc4C(O)C(Sc4ccc(Br)cc4)C3C1CCC2O (stereo unspecified) | 140 to 145 °C |
| CCc1cn2c(n1)Cc1cc3c(cc1C(c1ccc(N)cc1)=N2)OCO3 | 192 to 194 °C |
| Clc1cnc(Oc2cccc(C=C(Br)Br)c2)nc1 | 68 °C |
| Cc1c(C(=O)c2cccc(C(F)(F)F)c2F)c2ccc(Cl)c(Cl)c2n1CCCNS(C)(=O)=O | 181 °C |
| NC(=O)NCc1ccc(CN(CC(=O)O)C(=O)[C@@H](CCCNC(N)=N[N+](=O)[O-])NC(=O)C(c2ccccc2)c2ccccc2)cc1 | 78 to 81 °C |
| O=C1NC(=O)C(=Cc2ccc(CCSc3ccccc3)cc2)S1 | 159 to 161 °C |
| CCC1(C)COP(=O)(Cc2ccc(N)cc2)OC1 (stereo unspecified) | 130 to 131 °C |
| Cc1cc(Cc2ccc(C(=O)O)cc2)n(C)c1C(=O)c1ccc(Cl)cc1 | 245 to 247 °C |
| Cn1cc(C(=O)Nc2ccccc2-c2ccc(Cl)cc2)c(C(F)(F)F)n1 | 144 to 146 °C |

* * *

| Compound | melting point |
| --- | --- |
| CCN(C(=O)OC)c1cccc(-c2ccc3nnc(C)n3n2)c1 | 176 to 178 °C |
| CCCN1C(=O)C2(COc3cc4c(cc32)OCO4)c2ccccc21 (stereo not given) | 158 to 160 °C |
| CCCc1nc2cncc(C)c2[nH]1 | 173 to 175 °C |
| CCCn1nc(-c2c(-c3ccccc3)nn3ccc(OC)cc23)ccc1=O | 174 °C |
| CCCOc1ccccc1C(=O)Nc1cccnc1C(N)=O | 116 to 118 °C |
| CNc1cc(NS(=O)(=O)c2ccc(Cl)cc2)nc(NC)n1 | 272 to 273 °C |
| O=c1cc(CNCc2ccccc2)c2ccc(OCc3cccc(Cl)c3)cc2o1 | 133 to 135 °C |
| CC(=O)NC(Cc1ccccc1)C(=O)NC(C)C(=O)O (stereo not given) | 128 to 132 °C |
| Cc1nc(Nc2nc3cccc(C)c3[nH]2)nc(O)c1CC(=O)O | > 300 °C |
| CC(C)(O)c1ccc(CNC(=O)c2cccnc2Oc2cccc3c2CCC3=O)cc1 | 145 to 147 °C |

* * *

List of melting point values.

| Compound | melting point |
| --- | --- |
| C#Cc1ccc(C23OCC(C4CCCCC4)(CO2)CO3)cc1 | 190 to 192 °C |
| CN(C(=O)N1CCOCC1)c1ccc(OCC(=O)N[C@@H](CC(N)=O)C(=O)N[C@@H](Cc2ccccc2)[C@H](O)C(=O)N2CCC[C@H]2C(=O)NC(C)(C)C)cc1 | 112 to 114 °C |
| Cn1nc2ccc3nc(O)c(O)nc3c2n1 | > 300 °C |
| COc1cc(-c2nc(C)cs2)cc(OC)c1OC | 105 to 106 °C |
| Brc1ncccc1-c1cccnc1 | 97 to 98 °C |
| CCCS(=O)(=O)c1ccc2c(c1)C1(O)C(C2)SC(=NCC)N1CC (centres undefined) | 136 °C |
| C(#Cc1ccc(C2=CC(c3ccc(C#Cc4ccccc4)cc3)N(c3ccccc3)N2)cc1)c1ccccc1 (centres undefined) | 200 to 204 °C |
| CCN(CC)C(=O)Nc1cccc(Cl)c1 | 81 to 82 °C |
| N[C@@]1(C(=O)O)C[C@H](NC(=O)Nc2ccccc2Cl)[C@H]2[C@H](C(=O)O)[C@H]21 (relative stereo) | > 250 °C |
| CN(C)c1ccncc1CCCOc1ccc(OCCCC(=O)O)cc1 | 106 to 108 °C |
| CCCCCCCCCCCCCCCc1cc2cc(C(=O)OC)ccc2[nH]1 | 89 to 92 °C |
| O=C1NC(=S)SC1=Cc1ccc(COc2ccccc2CCc2ccccc2)cc1 | 162 to 163 °C |
| COc1nccc(-c2c(-c3ccc(F)cc3)ncn2C2CCC(O)(CO)CC2)n1 (centres undefined) | 225 to 226 °C |
| CCOC(=O)c1cccc2nc(OCC)n(Cc3ccc(-c4ccccc4C#N)cc3)c12 | 131 to 132 °C |
| COc1ccccc1NC(=O)Nc1nc(Nc2ccccc2-c2ccccc2)nc(N2Cc3ccccc3CC2C(=O)O)n1 (centres undefined) | 138 to 145 °C |
| CN(C)S(=O)(=O)c1ccc2c(c1)C(=O)c1ccccc1CC2 | 122 to 124 °C |
| COc1cccc(C23CCN(C(=O)c4ccccc4)CC2CCC(=O)C3)c1 (centres undefined) | 78 °C |
| Cc1noc(NC(=O)N2CCN(c3nc(-c4cccc(Cl)c4)cs3)CC2)c1C | 201 to 202 °C |
| COC(=O)c1cc(-c2ccccc2C)c(C(=O)OC)cc1I | 105 to 109 °C |

* * *

List of melting point values.

| Molecule | melting point |
| --- | --- |
| Cc1[nH]cnc1Cc1cn(C)c2ccccc2c1=O | 110 to 113 °C |
| O=S(=O)(c1ccc(-n2ncnc2-c2cnccn2)cc1)C(F)F | 152 to 154 °C |
| O=Cc1ccc(F)cc1-c1noc2ccc(F)cc12 | 165 to 166 °C |
| CCCCCCOc1cccc2c(OCCCCCC)cccc12 | 92 to 93 °C |
| COc1ccc(Nc2cnc3cnc(-c4ccc(O)cc4)nc3c2)cc1 | 134 to 136 °C |
| COC(=O)c1ccc(C(O)C#Cc2ccccc2)cc1 (stereo unspecified) | 48 to 50 °C |

* * *

List of melting point values.

| Compound | melting point |
| --- | --- |
| COc1ccc(C2C3=C(COC3=O)Nc3ccc4nn[nH]c4c32)c(F)c1 (configuration not stated) | 308 to 310 °C |
| Cc1ccc([S@@](C)=O)cc1 | 75 to 76 °C |
| COc1cc(-n2cnc(CO)c2)cc(C(F)(F)F)c1 | 133 to 134 °C |
| CC(=O)c1ccc(OCCCN2CCC(C(O)(c3ccc(F)cc3)c3ccc(F)cc3)CC2)c(C)c1 | 116 to 117 °C |
| COCc1nc(N)nc(N)c1-c1cc(Cl)cc(Cl)c1Cl | 265 to 268 °C |
| CCn1cc(C(=O)O)c(=O)c2cc(F)c(N3CCNC(c4cc5cc(Cl)ccc5o4)C3)cc21 (configuration not stated) | 262 to 263 °C |
| CC(=O)Nc1cc(Cl)c(Br)c(Cl)c1 | 224 °C |
| COc1cc2nc(N3CCN(c4nc5ccccc5o4)CC3)nc(N)c2cc1OC | > 250 °C |
| O=CC=C(c1cccc([N+](=O)[O-])c1)c1cccc([N+](=O)[O-])c1 | 131 to 136 °C |
| Cc1ccc(-n2nc(Cl)cc2-c2ccc(S(C)(=O)=O)cc2)cc1F | 160 to 162 °C |
| CCCCOC(=O)c1c(-c2ccncc2)[nH]c(-c2ccncc2)c1C | 182 to 186 °C |
| CCOC(=O)c1nc(NCC(c2ccccc2)c2ccccc2)c2ncn(C3CCCCO3)c2n1 (configuration not stated) | 138 to 140 °C |
| COC(=O)c1cc(Cl)c(I)cc1OC | 72 to 73 °C |
| Cc1nc2c(OC3CCc4ccccc43)nccc2n1C (configuration not stated) | 164 to 165 °C |
| CC(=O)N1CCc2oc3ncccc3c(=O)c2C1 | 182 to 184 °C |
| CC(C)(C#N)c1ccc(C#N)cc1 | 122 to 123 °C |
| CN1CCc2ccc(O)cc2[C@@H](c2ccccc2)C1 | 90 to 92 °C |
| O=C1C[C@@H]2O[C@@H](CS(=O)(=O)Cc3ccccc3)CN12 (racemic) | 137 to 145 °C |
| O=C(O)CCS(=O)(=O)NCCOCCc1ccccc1 | 80 to 82 °C |
| COc1ccc(C(=O)CC(C#N)c2ccc3c(c2)OCO3)cc1OC (configuration not stated) | 159 to 161 °C |
| c1ccc(Nc2ncc3cc4ccccc4n3n2)cc1 | 188 to 193 °C |
| CCOC(=O)C1NCc2[nH]c3cccc(OCc4ccccc4)c3c2C1COC (configuration not stated) | 170 to 171 °C |
